B1: SNAP91 (parent)
chain: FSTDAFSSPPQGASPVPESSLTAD

Variants of: B1
Protocol Notes: protein stability index of a GFP-peptide fusion (GPS, HEK-293T) (PSI 1-6); higher = more stable;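 also: lentivirally expressed fusions sorted by FACS into six bins by GFP to DsRed ratio, PSI derived from sequencing read proportions per bin multiplied by bin number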
Condition Description: c terminus: a fixed tail appended
Quantity Name: protein stability index
One number for each entry.

Input Sequence	Value Measured
FETDAFSSPPQGASPVPESSLTAD [S2E]	5.52

Each of the following entries comes with a recorded value; kindly state protein stability index for each.
1. NSTDAFSSPPQGASPVPESSLTAD [F1N]
2. FSTDKFSSPPQGASPVPESSLTAD [A5K]
3. FSTDAFSSPPQGASLVPESSLTAD [P15L]
4. FSTDAFSSPPQGASPVPESSLTAM [D24M]
5. FSTDAFSSPPHGASPVPESSLTAD [Q11H]

1. 5.74
2. 4.71
3. 2.64
4. 3.19
5. 3.43

Each of the following entries comes with a recorded value; kindly state protein stability index for each.
1. FSTDAFSSPPQRASPVPESSLTAD [G12R]
2. FSTDAFSSPPQGASPVPESSLTPD [A23P]

1: 3.11; 2: 2.8

Each of the following entries comes with a recorded value; kindly state protein stability index for each.
1. FSTDAFSSPPQGASPVPEESLTAD [S19E]
2. FSTDAFSSPPQGASPVPESDLTAD [S20D]
3. FSTDAFSYPPQGASPVPESSLTAD [S8Y]
4. FSTDAFSSPPQGATPVPESSLTAD [S14T]
5. FSADAFSSPPQGASPVPESSLTAD [T3A]

[3.19, 3.48, 3.39, 3.29, 5.12]
